testedTarget: T1, I-SceI wild-type (UniProt P03882 1-235)
T1 sequence: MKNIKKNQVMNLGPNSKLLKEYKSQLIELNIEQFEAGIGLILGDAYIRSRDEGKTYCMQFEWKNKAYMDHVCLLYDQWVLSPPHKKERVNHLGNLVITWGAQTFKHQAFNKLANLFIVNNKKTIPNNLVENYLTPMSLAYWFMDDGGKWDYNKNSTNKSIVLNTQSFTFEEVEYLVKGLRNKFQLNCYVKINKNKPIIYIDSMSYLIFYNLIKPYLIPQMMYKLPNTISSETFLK
methodNotes: filter binding
Here the recorded Kd is given for each entry.
property: Kd (nM)

[[record]]
binder = "Duplex linear product (upstream cleavage product) (dsDNA) DNA 1: GGTGAAACACTCGAACGCTAGGGATAA DNA 2: CCCTAGCGTTCGAGTGTTTCA"
valueunit = "nM"
reportedmeasurement = 175

[[record]]
binder = "Nicked bottom DNA strand substrate (structured_DNA, nick at bottom-strand cleavage site; 5' phosphate at nick (21-mer)) DNA 1: GGTGAAACACTCGAACGCTAGGGATAACAGGGTAATATAGCCAATCCAATGATTGGCTATATTACCCTGTTAT DNA 2: CCCTAGCGTTCGAGTGTTTCA"
valueunit = "nM"
reportedmeasurement = 3.2

[[record]]
binder = "94-mer intact hairpin substrate (structured_DNA) DNA: GGTGAAACACTCGAACGCTAGGGATAACAGGGTAATATAGCCAATCCAATGATTGGCTATATTACCCTGTTATCCCTAGCGTTCGAGTGTTTCA"
valueunit = "nM"
reportedmeasurement = 2.3

[[record]]
binder = "Nicked top DNA strand substrate (structured_DNA, nick at top-strand cleavage site; 5' phosphate at nick (67-mer)) DNA 1: GGTGAAACACTCGAACGCTAGGGATAA DNA 2: CAGGGTAATATAGCCAATCCAATGATTGGCTATATTACCCTGTTATCCCTAGCGTTCGAGTGTTTCA"
valueunit = "nM"
reportedmeasurement = 4.2

[[record]]
binder = "CAGGGTAATATAGCCAATCCAATGATTGGCTATATTACCCTGTTAT (structured_DNA) [Hairpin product 46-mer (downstream cleavage product)]"
valueunit = "nM"
reportedmeasurement = 3.3


The origin of these recorded values is paper PMC2700736.
